system: Amaranthus retroflexus; test: Herbicidal activity against Amaranthus retroflexus assessed as herbicidal damage at 1.5 kg/ha measured after preemergence treatment; type: functional; details: pre-emergence
Measurement Name: inhibition at 1500 g/ha
Please format your answer as a value with the unit trailing.

Inquiry: # inhibition at 1500 g/ha lookup, item CCOCCOC(=O)/C(C#N)=C(/C)NCC1CCOC1 (stereo not drawn)
Reply text: 12.6%

Inquiry: # inhibition at 1500 g/ha lookup, item CCOCCOC(=O)/C(C#N)=C(/NCC1CCOC1)SC (stereo not drawn)
Reply text: 22.1%

Inquiry: # inhibition at 1500 g/ha lookup, item CCOCCOC(=O)/C(C#N)=C(\NCc1ccoc1)C(C)C
Reply text: 22.1%
